# Test system: IRE1-XBP1s (XBP1-RLuc splicing reporter in HEK293 T-REx cells)
# assay-comment: IRE1-XBP1s activation assay (XBP1-RLuc splicing reporter, HEK293 T-REx cells, luminescence relative to thapsigargin)
# Type: cell-based
# cond: 18 h, compound 10 μM, HEK293 T-REx XBP1-RLuc reporter cells, relative to thapsigargin (Tg) 500 nM, read-out: Activity (IRE1-XBP1s activation, luminescence as % signal relative to thapsigargin, % Tg)
Form field: activation at 10 µM (one value per entry).
reported-property: activation at 10 µM

Cc1ccc(OCCN(C)C(=O)Cn2cc(NC(=O)CCNc3ccc(C)cn3)cn2)cc1
< 30%
Cc1ccc(OCCN(C)C(=O)Cn2cc(NC(=O)CCOc3cccnc3NS(C)(=O)=O)cn2)cc1
< 30%
COc1ncc(C(F)(F)F)cc1NCCC(=O)Nc1cnn(CC(=O)N(C)CCOc2ccc(C)cc2)c1
30 to 50%
CN(CCOc1cccnc1)C(=O)Cn1cc(NC(=O)CCOc2ccccc2F)cn1
< 30%
Cc1ccc(OCCN(C)C(=O)Cn2cc(NC(=O)CCNc3cnc(F)c(Cl)c3)cn2)cc1
> 50%
Cc1ccc(OCCN(C)C(=O)Cn2cc(NC(=O)CCNc3ccc4c(n3)OCO4)cn2)cc1
> 50%
Cc1ccc(OCCN(C)C(=O)Cn2cc(NC(=O)CCOc3c(F)cc(C)cc3F)cn2)cc1
> 50%
C=C(C)c1cncc(F)c1NCCC(=O)Nc1cnn(CC(=O)N(C)CCOc2ccc(C)cc2)c1
> 50%
Cc1ccc(OCCN(C)C(=O)Cn2cc(NC(=O)CCOc3cccnc3N)cn2)cc1
> 50%
Cc1ccc(OCCN(C)C(=O)Cn2cc(NC(=O)CCOc3ccc4c(c3)OCO4)cn2)cc1
> 50%
Cc1ccc(OCCN(C)C(=O)Cn2cc(NC(=O)CCOc3cccnc3)cn2)cc1
> 50%
Cc1ccc(OCCN(C)C(=O)Cn2cc(NC(=O)CCOc3ccccc3C)cn2)cc1
> 50%
COc1ccc(OCCN(C)C(=O)Cn2cc(NC(=O)CCOc3ccccc3)cn2)cc1
< 30%
Cc1ccc(OCCN(C)C(=O)Cn2cc(NC(=O)CCNc3c(F)cnc(C)c3C3CC3)cn2)cc1
> 50%
Cc1ccc(OCCN(C)C(=O)Cn2cc(NC(=O)CCNc3cc(Cl)nc4nccn34)cn2)cc1
< 30%
Cc1ccc(OCCN(C)C(=O)Cn2cc(NC(=O)CCNc3ncc(-c4ncc(C)o4)cn3)cn2)cc1
< 30%
Cc1ccc(OCCN(C)C(=O)Cn2cc(NC(=O)CCN(C)c3ccccc3)cn2)cc1
< 30%
Cc1ccc(OCCN(C)C(=O)Cn2cc(NC(=O)CCNc3cccc(C)n3)cn2)cc1
30 to 50%
COc1ccc(OCCN(C)C(=O)Cn2cc(NC(=O)CCOc3ccc(C)cc3F)cn2)cc1
< 30%
Cc1ccc(OCCN(C)C(=O)Cn2cc(NC(=O)CCOc3ccc(C)nc3C)cn2)cc1
30 to 50%
C#CCCC1(CCC(=O)Nc2ccc(OCCC(=O)Nc3cnn(CC(=O)N(C)CCOc4ccc(C)cc4)c3)nc2)N=N1
> 50%
Cc1nc(F)ccc1NCCC(=O)Nc1cnn(CC(=O)N(C)CCOc2cnn(C)c2)c1
< 30%
Cc1ccc(OCCN(C)C(=O)Cn2cc(NC(=O)CCOc3ccnc(NC(=O)OC(C)(C)C)c3)cn2)cc1
> 50%
Cc1ccc(OCCN(C)C(=O)Cn2cc(NC(=O)CCOc3ccncc3[N+](=O)[O-])cn2)cc1
< 30%
Cc1ccc(OCCC(=O)Nc2cnn(CC(=O)N(C)CCOc3ncn(C)n3)c2)c(F)c1
< 30%
Cc1ccc(OCCN(C)C(=O)Cn2cc(NC(=O)CCOc3ccc(F)cc3C(F)(F)F)cn2)cc1
< 30%
CC(=O)c1cncc(F)c1NCCC(=O)Nc1cnn(CC(=O)N(C)CCOc2ccc(C)cc2)c1
> 50%
CCc1ccc(OCCN(C)C(=O)Cn2cc(NC(=O)CCOC3CCCCC3)cn2)cc1
30 to 50%
Cc1ccc(OCCC(=O)Nc2cnn(CC(=O)N(C)CCOc3ccc(F)c(Cl)c3)c2)c(F)c1
< 30%
Cc1ccc(OCCN(C)C(=O)Cn2cc(NC(=O)CCNc3cccc(F)n3)cn2)cc1
> 50%
Cc1ccc(OCCN(C)C(=O)Cn2cc(NC(=O)CCOc3cccc(Br)n3)cn2)cc1
> 50%
Cc1ncccc1NCCC(=O)Nc1cnn(CC(=O)N(C)CCOc2ccc(C(F)(F)F)cc2)c1
< 30%
